Overview of recorded IC50 for various compounds
- SYSTEM UNDER TEST: proteasome of MDA-MB-231 cell extract (Homo sapiens, UniProt P28072+P28074+Q99436)
- Construct: endogenous in cells; host or cells: MDA-MB-231 whole-cell extract
- Sequence (P28074 60-263): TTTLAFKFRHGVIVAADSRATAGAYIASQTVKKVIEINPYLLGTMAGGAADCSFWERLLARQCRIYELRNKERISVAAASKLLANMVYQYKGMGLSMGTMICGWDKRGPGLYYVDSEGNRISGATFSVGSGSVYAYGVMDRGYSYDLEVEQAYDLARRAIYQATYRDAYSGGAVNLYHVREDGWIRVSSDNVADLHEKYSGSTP
- Sequence (P28072 1-239): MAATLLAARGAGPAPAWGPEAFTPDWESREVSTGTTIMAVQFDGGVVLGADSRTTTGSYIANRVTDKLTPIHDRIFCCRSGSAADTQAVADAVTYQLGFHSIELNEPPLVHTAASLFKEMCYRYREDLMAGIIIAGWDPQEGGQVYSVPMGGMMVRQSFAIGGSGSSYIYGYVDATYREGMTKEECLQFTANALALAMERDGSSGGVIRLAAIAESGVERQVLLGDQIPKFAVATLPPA
- Sequence (Q99436 44-277): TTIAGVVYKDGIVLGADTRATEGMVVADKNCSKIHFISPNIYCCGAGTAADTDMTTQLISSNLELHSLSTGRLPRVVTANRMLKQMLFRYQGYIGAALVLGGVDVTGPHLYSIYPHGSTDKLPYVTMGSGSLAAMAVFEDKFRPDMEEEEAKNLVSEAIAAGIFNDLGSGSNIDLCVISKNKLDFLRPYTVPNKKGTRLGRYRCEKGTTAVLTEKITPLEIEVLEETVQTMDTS
- PROTOCOL: Proteasome activity assay on MDA-MB-231 whole-cell extract
- Format: biochemical
- ASSAY CONDITIONS: 2 h incubation, read-out: IC50 Trypsin-like activity
Your answer is read as µM, so omit the unit and give the number.

{"columns": ["COMPOUND", "UNIT INFO", "IC50"],
 "data": [
  ["C[N+](CC(=O)NCC(=O)OC(C)(C)C)=C1[S][Au-]([Br])([Br])[S]1 [AuD6, [Au^IIIBr2(dtc-Sar-AA-O(t-Bu))]]", "µM", 3]
]}

# lookup: C[N+](CC(=O)NC(C)(C)C(=O)OC(C)(C)C)=C1[S][Au-]([Br])([Br])[S]1 [AuD8, [Au^IIIBr2(dtc-Sar-AA-O(t-Bu))]] on proteasome of MDA-MB-231 cell extract (Homo sapiens, UniProt P28072+P28074+Q99436), IC50 = 5.7
